All values here come from the supplement of paper PMC7125110.

B1: glmS ribozyme (parent)
chain: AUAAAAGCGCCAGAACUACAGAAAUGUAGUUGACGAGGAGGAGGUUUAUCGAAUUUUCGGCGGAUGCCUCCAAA

# Variants of: B1
# Assay Details: kcat; higher = faster cleavage; RNA array
# Experimental Setup: with glucosamine-6-phosphate
Fewer inactive variants are shown than the library holds.
Experimental Readout: kcat (s⁻¹)
Just the number please, in s⁻¹, no unit attached.

Input line: Give kcat for the following variant: AUAAAAGCGCCAGAACUACAGAAAUGUACUUGACGAGGAAGAGGUUUAUCGAAUUUUCGGCGGAUGCCUCCAAA [G29C G40A]
Output line: 0.000208
